Tested on: OVMIU (Ovarian Carcinoma)
Experiment: Bliss excess, mean over the matrix (fraction); higher = more synergy
measuredAttribute: Bliss excess
Lab note: record the figure alone, no unit after it.

Solved entries (count: 5):
So what's the measured Bliss excess for this one? CC1(C)CCC(CN2CCN(c3ccc(C(=O)NS(=O)(=O)c4ccc(NCC5CCOCC5)c([N+](=O)[O-])c4)c(Oc4cnc5[nH]ccc5c4)c3)CC2)=C(c2ccc(Cl)cc2)C1 [Venetoclax] + CCN(CCO)CCCOc1ccc2c(Nc3cc(CC(=O)Nc4cccc(F)c4)[nH]n3)ncnc2c1 [AZD2811] (first compound max 1 µM, 7x7, partner max 1 µM)
-0.0851

So what's the measured Bliss excess for this one? N#Cc1cnc(Nc2cc(NC[C@H]3CNCCO3)c(C(F)(F)F)cn2)cn1 [SRA737] + C=CCn1c(=O)c2cnc(Nc3ccc(N4CCN(C)CC4)cc3)nc2n1-c1cccc(C(C)(C)O)n1 [AZD1775] (first compound max 10 µM, partner max 1 µM)
0.0717

So what's the measured Bliss excess for this one? C[C@@H](Nc1cc(F)cc(F)c1)c1cc(C(=O)N(C)C)cc2c(=O)cc(N3CCOCC3)oc12 [AZD8186] + CC(=O)c1c(C)c2cnc(Nc3ccc(N4CCNCC4)cn3)nc2n(C2CCCC2)c1=O [Palbociclib] (first compound max 10 µM, 7x7, partner max 10 µM)
-0.0439

So what's the measured Bliss excess for this one? Cc1c2c(nn1C)CSCc1cc(n(C)n1)CSc1cc(c3ccccc3c1)OCCCc1c(C(=O)O)n(C)c3c-2c(Cl)ccc13 [AZD5991] + Cn1cnc2c(F)c(Nc3ccc(Br)cc3Cl)c(C(=O)NOCCO)cc21 [Selumetinib] (first compound max 1 µM, 7x7, partner max 3 µM)
-0.0284

So what's the measured Bliss excess for this one? CC(=O)c1c(C)c2cnc(Nc3ccc(N4CCNCC4)cn3)nc2n(C2CCCC2)c1=O [Palbociclib] + Cn1cnc2c(F)c(Nc3ccc(Br)cc3Cl)c(C(=O)NOCCO)cc21 [Selumetinib] (first compound max 10 µM, 7x7, partner max 10 µM)
-0.0097

More entries:
So what's the measured Bliss excess for this one? Cc1nc(-c2cn3c(n2)-c2ccc(-c4cnn(C(C)(C)C(N)=O)c4)cc2OCC3)n(C(C)C)n1 [Taselisib] + O=C(Nc1ccc2[nH]nc(-c3ccncc3)c2c1)[C@@H]1CCN(CC(=O)N2CCN(c3ccc(-c4ncccn4)cc3)CC2)C1 [SCH772984] (first compound max 10 µM, 7x7, partner max 5 µM)
0.0699

----------
Test system: LK-2 (Squamous Cell Lung Carcinoma)
Assay: combination Emax (second highest fraction inhibited in the dose matrix, 72 h); higher = more inhibition; extreme values may be limits of the assay
measuredAttribute: combination Emax
Lab note: record the figure alone, no unit after it.

Solved entries (count: 5):
Which combination Emax is reported with LK-2 (Squamous Cell Lung Carcinoma) for this entry: CC1(C)CCC(CN2CCN(c3ccc(C(=O)NS(=O)(=O)c4ccc(NCC5CCOCC5)c([N+](=O)[O-])c4)c(Oc4cnc5[nH]ccc5c4)c3)CC2)=C(c2ccc(Cl)cc2)C1 [Venetoclax] + C[C@@H]1COCCN1C2=NC(=NC(=C2)C3(CC3)[S@](=N)(=O)C)C4=C5C=CNC5=NC=C4 [AZD6738] (first compound max 1 µM, 7x7, partner max 10 µM) ?
0.494

Which combination Emax is reported with LK-2 (Squamous Cell Lung Carcinoma) for this entry: Cc1c2c(nn1C)CSCc1cc(n(C)n1)CSc1cc(c3ccccc3c1)OCCCc1c(C(=O)O)n(C)c3c-2c(Cl)ccc13 [AZD5991] + CC(=O)O[C@H]1C(=O)[C@@]2(C)[C@H]([C@H](OC(=O)c3ccccc3)[C@]3(O)C[C@H](OC(=O)[C@H](O)[C@@H](NC(=O)c4ccccc4)c4ccccc4)C(C)=C1C3(C)C)[C@]1(OC(C)=O)CO[C@@H]1C[C@@H]2O [Paclitaxel] (first compound max 1 µM, 7x7, partner max 3 µM) ?
0.986

Which combination Emax is reported with LK-2 (Squamous Cell Lung Carcinoma) for this entry: Cc1nc(-c2cn3c(n2)-c2ccc(-c4cnn(C(C)(C)C(N)=O)c4)cc2OCC3)n(C(C)C)n1 [Taselisib] + O=C(Nc1ccc2[nH]nc(-c3ccncc3)c2c1)[C@@H]1CCN(CC(=O)N2CCN(c3ccc(-c4ncccn4)cc3)CC2)C1 [SCH772984] (first compound max 10 µM, 7x7, partner max 5 µM) ?
0.613

Which combination Emax is reported with LK-2 (Squamous Cell Lung Carcinoma) for this entry: CC(=O)c1c(C)c2cnc(Nc3ccc(N4CCNCC4)cn3)nc2n(C2CCCC2)c1=O [Palbociclib] + Cc1c2c(nn1C)CSCc1cc(n(C)n1)CSc1cc(c3ccccc3c1)OCCCc1c(C(=O)O)n(C)c3c-2c(Cl)ccc13 [AZD5991] (first compound max 10 µM, 7x7, partner max 1 µM) ?
0.33

Which combination Emax is reported with LK-2 (Squamous Cell Lung Carcinoma) for this entry: COc1nnc2ccc(N3CCC(c4ccc(OCCN5CCN(C)C(=O)[C@H]5C)cc4)CC3)nn12 [AZD5153] + C[C@@H]1COCCN1C2=NC(=NC(=C2)C3(CC3)[S@](=N)(=O)C)C4=C5C=CNC5=NC=C4 [AZD6738] (first compound max 1 µM, 7x7, partner max 10 µM) ?
0.784

More entries:
Which combination Emax is reported with LK-2 (Squamous Cell Lung Carcinoma) for this entry: CS(=O)(=O)CCNCc1ccc(-c2ccc3ncnc(Nc4ccc(OCc5cccc(F)c5)c(Cl)c4)c3c2)o1 [Lapatinib] + Cn1cnc2c(F)c(Nc3ccc(Br)cc3Cl)c(C(=O)NOCCO)cc21 [Selumetinib] (first compound max 10 µM, 7x7, partner max 10 µM) ?
0.485

Which combination Emax is reported with LK-2 (Squamous Cell Lung Carcinoma) for this entry: COc1nnc2ccc(N3CCC(c4ccc(OCCN5CCN(C)C(=O)[C@H]5C)cc4)CC3)nn12 [AZD5153] + Cc1c2c(nn1C)CSCc1cc(n(C)n1)CSc1cc(c3ccccc3c1)OCCCc1c(C(=O)O)n(C)c3c-2c(Cl)ccc13 [AZD5991] (first compound max 1 µM, 7x7, partner max 1 µM) ?
0.413

----------
Test system: VAL (B-Cell Non-Hodgkin's Lymphoma)
Test: Bliss excess, mean over the matrix (fraction); higher = more synergy
measuredAttribute: Bliss excess

So what's the measured Bliss excess for this one? O=C(c1cc(Cc2n[nH]c(=O)c3ccccc23)ccc1F)N1CCN(C(=O)C2CC2)CC1 [Olaparib] + CC1(C)CCC(CN2CCN(c3ccc(C(=O)NS(=O)(=O)c4ccc(NCC5CCOCC5)c([N+](=O)[O-])c4)c(Oc4cnc5[nH]ccc5c4)c3)CC2)=C(c2ccc(Cl)cc2)C1 [Venetoclax] (first compound max 10 µM, 7x7, partner max 1 µM)
0.0181

So what's the measured Bliss excess for this one? O=C(c1cc(Cc2n[nH]c(=O)c3ccccc23)ccc1F)N1CCN(C(=O)C2CC2)CC1 [Olaparib] + COc1nnc2ccc(N3CCC(c4ccc(OCCN5CCN(C)C(=O)[C@H]5C)cc4)CC3)nn12 [AZD5153] (first compound max 10 µM, 7x7, partner max 1 µM)
-0.0784

As a next step, examine the compound that follows.
So what's the measured Bliss excess for this one? Cc1c2c(nn1C)CSCc1cc(n(C)n1)CSc1cc(c3ccccc3c1)OCCCc1c(C(=O)O)n(C)c3c-2c(Cl)ccc13 [AZD5991] + Cc1cc2ncnn2cc1Nc1ncc2c(n1)n(C1CCOCC1)c(=O)n2C [AZD7648] (first compound max 1 µM, 7x7, partner max 10 µM)
-0.0356

----------
System: CAL-120 (Breast Carcinoma)
Experiment: combination Emax (second highest fraction inhibited in the dose matrix, 72 h); higher = more inhibition; extreme values may be limits of the assay
measuredAttribute: combination Emax
Lab note: record the figure alone, no unit after it.

Solved entries (count: 3):
So what's the measured combination Emax for this one? Cc1c2c(nn1C)CSCc1cc(n(C)n1)CSc1cc(c3ccccc3c1)OCCCc1c(C(=O)O)n(C)c3c-2c(Cl)ccc13 [AZD5991] + C[C@@H](Nc1cc(F)cc(F)c1)c1cc(C(=O)N(C)C)cc2c(=O)cc(N3CCOCC3)oc12 [AZD8186] (first compound max 1 µM, 7x7, partner max 3 µM)
0.218

So what's the measured combination Emax for this one? Cn1cnc2c(F)c(Nc3ccc(Br)cc3Cl)c(C(=O)NOCCO)cc21 [Selumetinib] + CC(C)n1c(=O)n(C)c2cnc3cc(F)c(-c4ccc(OCCCN5CCCCC5)nc4)cc3c21 [AZD1390] (first compound max 10 µM, 7x7, partner max 0.3 µM)
0.112

So what's the measured combination Emax for this one? Cc1c2c(nn1C)CSCc1cc(n(C)n1)CSc1cc(c3ccccc3c1)OCCCc1c(C(=O)O)n(C)c3c-2c(Cl)ccc13 [AZD5991] + CN(C)CCCOc1ccc(-c2ccc3ncc4c(c3c2)n(C2CCOCC2)c(=O)n4C)cn1 [AZD0156] (first compound max 1 µM, 7x7, partner max 1 µM)
0.171

As a next step, examine the compound that follows.
So what's the measured combination Emax for this one? Cc1cc2ncnn2cc1Nc1ncc2c(n1)n(C1CCOCC1)c(=O)n2C [AZD7648] + C=CCn1c(=O)c2cnc(Nc3ccc(N4CCN(C)CC4)cc3)nc2n1-c1cccc(C(C)(C)O)n1 [AZD1775] (first compound max 10 µM, partner max 1 µM)
0.498
